assay: toxicity test (LD50); details: mouse, in vivo, iv, mice; administered intravenously
Readout: LD50

Example results:
- Molecule: "CCCCCCCCCCC(=O)N[C@@H](Cc1c[nH]c2ccccc12)C(=O)N[C@@H](CC(N)=O)C(=O)N[C@@H](CC(=O)O)C(=O)N[C@@H]1C(=O)NCC(=O)N[C@@H](CCCN)C(=O)N[C@@H](CC(=O)O)C(=O)N[C@H](C)C(=O)N[C@@H](CC(=O)O)C(=O)NCC(=O)N[C@H](CO)C(=O)N[C@@H]([C@H](C)CC(=O)O)C(=O)N[C@@H](CC(=O)c2ccccc2N)C(=O)O[C@@H]1C [Compound 5]"
  Readout: "LD50"
  Observed Result: "> 600 mg/kg"
- Molecule: "CCCCCCCCC(=O)N[C@@H](Cc1c[nH]c2ccccc12)C(=O)N[C@@H](CC(N)=O)C(=O)N[C@@H](CC(=O)O)C(=O)N[C@@H]1C(=O)NCC(=O)N[C@@H](CCCN)C(=O)N[C@@H](CC(=O)O)C(=O)N[C@H](C)C(=O)N[C@@H](CC(=O)O)C(=O)NCC(=O)N[C@H](CO)C(=O)N[C@@H]([C@H](C)CC(=O)O)C(=O)N[C@@H](CC(=O)c2ccccc2N)C(=O)O[C@@H]1C [Compound 3]"
  Readout: "LD50"
  Observed Result: "> 600 mg/kg"
- Molecule: "CCCCC=CCCCCCCCC(=O)N[C@@H](Cc1c[nH]c2ccccc12)C(=O)N[C@@H](CC(N)=O)C(=O)N[C@@H](CC(=O)O)C(=O)N[C@@H]1C(=O)NCC(=O)N[C@@H](CCCN)C(=O)N[C@@H](CC(=O)O)C(=O)N[C@H](C)C(=O)N[C@@H](CC(=O)O)C(=O)NCC(=O)N[C@H](CO)C(=O)N[C@@H]([C@H](C)CC(=O)O)C(=O)N[C@@H](CC(=O)c2ccccc2N)C(=O)O[C@@H]1C [Compound 12]"
  Readout: "LD50"
  Observed Result: "450 mg/kg"
- Molecule: "CCCCCCCC(=O)N[C@@H](Cc1c[nH]c2ccccc12)C(=O)N[C@@H](CC(N)=O)C(=O)N[C@@H](CC(=O)O)C(=O)N[C@@H]1C(=O)NCC(=O)N[C@@H](CCCN)C(=O)N[C@@H](CC(=O)O)C(=O)N[C@H](C)C(=O)N[C@@H](CC(=O)O)C(=O)NCC(=O)N[C@H](CO)C(=O)N[C@@H]([C@H](C)CC(=O)O)C(=O)N[C@@H](CC(=O)c2ccccc2N)C(=O)O[C@@H]1C [Compound 2]"
  Readout: "LD50"
  Observed Result: "> 600 mg/kg"

# ---- query molecule ----
For the molecule C=CCCCCCCCCC(=O)N[C@@H](Cc1c[nH]c2ccccc12)C(=O)N[C@@H](CC(N)=O)C(=O)N[C@@H](CC(=O)O)C(=O)N[C@@H]1C(=O)NCC(=O)N[C@@H](CCCN)C(=O)N[C@@H](CC(=O)O)C(=O)N[C@H](C)C(=O)N[C@@H](CC(=O)O)C(=O)NCC(=O)N[C@H](CO)C(=O)N[C@@H]([C@H](C)CC(=O)O)C(=O)N[C@@H](CC(=O)c2ccccc2N)C(=O)O[C@@H]1C [Compound 11] , what LD50 is on record?
≥ 500 mg/kg
